assayed.target: delta opioid receptor (Homo sapiens)
Sequence (P41143 whole entry): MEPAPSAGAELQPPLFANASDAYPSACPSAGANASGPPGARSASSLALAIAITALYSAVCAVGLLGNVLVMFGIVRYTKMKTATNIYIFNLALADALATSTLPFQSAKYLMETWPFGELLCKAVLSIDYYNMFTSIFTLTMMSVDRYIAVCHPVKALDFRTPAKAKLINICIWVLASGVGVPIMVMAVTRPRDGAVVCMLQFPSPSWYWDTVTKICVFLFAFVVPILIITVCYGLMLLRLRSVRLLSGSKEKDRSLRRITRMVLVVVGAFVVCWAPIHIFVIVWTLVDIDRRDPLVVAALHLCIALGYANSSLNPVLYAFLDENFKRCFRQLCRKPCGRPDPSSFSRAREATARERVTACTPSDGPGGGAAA
protocol.description: Filtration binding assay: delta opioid receptor
property.label: IC50

[[record]]
given_smiles = "NC[C@H](O)CN1CN(c2ccc(F)cc2)C2(CCN([C@@H]3Cc4cccc5cccc3c45)CC2)C1=O"
property_label = "IC50"
result = "0.28 µM"

[[record]]
given_smiles = "CC(C)(C)N(Cc1ccccc1)C[C@H](O)CN1CN(c2ccc(F)cc2)C2(CCN(Cc3cccc4ccccc34)CC2)C1=O"
property_label = "IC50"
result = "> 10 µM"

[[record]]
given_smiles = "O=C1N(C[C@H](O)CNCc2cc(C(F)(F)F)cc(C(F)(F)F)c2)CN(c2ccc(F)cc2)C12CCN(CC1CCCCCCC1)CC2"
property_label = "IC50"
result = "9.16 µM"

[[record]]
given_smiles = "CN(C)CCN(Cc1ccccc1)C[C@H](O)CN1CN(c2ccc(F)cc2)C2(CCN(CC3CCCCCCC3)CC2)C1=O"
property_label = "IC50"
result = "8.78 µM"

